- Test name: Selectivity index, ratio of CC50 for human RD cells to EC50 for antiviral activity against Enterovirus A71 infected in human RD cells
- Format: toxicity, cell-based
- Experimental context: read-out: Ratio CC50/EC50
Task for the reader: assign each of the following compounds its reported selectivity ratio.
Please state the value as a number alone, without comment.

Record summary for O=C(CCC(CCC(=O)NC(Cc1c(-c2cc(C(=O)O)cc(C(=O)O)c2)[nH]c2ccccc12)C(=O)O)(CCC(=O)NC(Cc1c(-c2cc(C(=O)O)cc(C(=O)O)c2)[nH]c2ccccc12)C(=O)O)[N+](=O)[O-])NC(Cc1c(-c2cc(C(=O)O)cc(C(=O)O)c2)[nH]c2ccccc12)C(=O)O (stereo not drawn) : reported selectivity ratio = 203

// field: selectivity ratio; key: O=C(CCC(CCC(=O)NC(Cc1c(-c2cc(C(=O)O)cc(C(=O)O)c2)[nH]c2c(-c3cc(C(=O)O)cc(C(=O)O)c3)cccc12)C(=O)O)(CCC(=O)NC(Cc1c(-c2cc(C(=O)O)cc(C(=O)O)c2)[nH]c2c(-c3cc(C(=O)O)cc(C(=O)O)c3)cccc12)C(=O)O)[N+](=O)[O-])NC(Cc1c(-c2cc(C(=O)O)cc(C(=O)O)c2)[nH]c2c(-c3cc(C(=O)O)cc(C(=O)O)c3)cccc12)C(=O)O (stereo not drawn) ; value = 526

The compound O=C(CCOCC(COCCC(=O)NC(Cc1c[nH]c2c(-c3cccc(C(=O)O)c3)cccc12)C(=O)O)(COCCC(=O)NC(Cc1c[nH]c2c(-c3cccc(C(=O)O)c3)cccc12)C(=O)O)COCCC(=O)NC(Cc1c[nH]c2c(-c3cccc(C(=O)O)c3)cccc12)C(=O)O)NC(Cc1c[nH]c2c(-c3cccc(C(=O)O)c3)cccc12)C(=O)O (stereo not drawn) showed selectivity ratio equal to 20
